The measured values listed here are drawn from ChEMBL document CHEMBL1136781.

target_system: ATP-dependent translocase ABCB1 (Mus musculus, UniProt P21447)
Sequence (P21447 whole entry): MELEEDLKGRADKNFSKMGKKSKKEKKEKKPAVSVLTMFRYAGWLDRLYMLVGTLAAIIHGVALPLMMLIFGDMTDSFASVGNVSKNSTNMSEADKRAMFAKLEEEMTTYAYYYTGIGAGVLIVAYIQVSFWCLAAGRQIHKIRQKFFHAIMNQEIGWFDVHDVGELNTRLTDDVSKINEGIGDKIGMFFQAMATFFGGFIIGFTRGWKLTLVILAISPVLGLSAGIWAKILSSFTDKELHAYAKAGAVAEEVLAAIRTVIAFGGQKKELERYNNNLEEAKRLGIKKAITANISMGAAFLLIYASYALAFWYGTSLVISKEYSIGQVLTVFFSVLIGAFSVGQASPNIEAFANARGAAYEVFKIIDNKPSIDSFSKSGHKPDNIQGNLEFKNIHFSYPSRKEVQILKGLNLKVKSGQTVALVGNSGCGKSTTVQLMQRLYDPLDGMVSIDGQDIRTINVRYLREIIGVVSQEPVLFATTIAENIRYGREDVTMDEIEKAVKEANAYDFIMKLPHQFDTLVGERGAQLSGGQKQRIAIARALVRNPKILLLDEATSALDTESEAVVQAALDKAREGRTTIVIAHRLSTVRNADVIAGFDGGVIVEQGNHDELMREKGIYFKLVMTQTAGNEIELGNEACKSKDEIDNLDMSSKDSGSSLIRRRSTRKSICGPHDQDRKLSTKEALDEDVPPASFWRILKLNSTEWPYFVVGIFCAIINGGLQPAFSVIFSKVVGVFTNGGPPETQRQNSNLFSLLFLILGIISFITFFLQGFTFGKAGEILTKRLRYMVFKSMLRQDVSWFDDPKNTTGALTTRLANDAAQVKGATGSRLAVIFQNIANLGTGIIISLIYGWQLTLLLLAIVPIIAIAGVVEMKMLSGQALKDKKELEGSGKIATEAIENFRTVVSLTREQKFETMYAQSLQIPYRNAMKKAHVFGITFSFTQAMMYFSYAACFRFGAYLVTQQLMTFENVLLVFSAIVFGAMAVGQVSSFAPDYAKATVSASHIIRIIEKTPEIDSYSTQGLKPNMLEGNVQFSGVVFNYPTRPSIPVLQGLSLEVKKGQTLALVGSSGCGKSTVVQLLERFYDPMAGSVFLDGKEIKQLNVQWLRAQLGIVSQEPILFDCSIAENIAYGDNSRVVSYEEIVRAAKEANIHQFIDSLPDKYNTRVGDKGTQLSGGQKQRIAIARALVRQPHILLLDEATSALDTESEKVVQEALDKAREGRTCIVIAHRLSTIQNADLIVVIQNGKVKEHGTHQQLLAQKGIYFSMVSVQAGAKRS
protocol_details: Inhibition of P-glycoprotein, mouse L-mdr1a expressed in LLC-PK1 epithelial cells using calcein-AM polarisation assay
Format: functional, cell-based
Please respond with reported pIC50 for every item in the list.
Answer as the number alone; pIC50 is minus log10 of concentration in mol/L.

### Prompt Provide only the value of recorded pIC50 for "COc1ccc(CCN2CCC(Nc3nc4ccccc4n3Cc3ccc(F)cc3)CC2)cc1"
### Response 5.89

### Prompt Dear colleague, please send me the reported pIC50 for "Cc1c(O)cccc1C(=O)N[C@@H](CSc1ccccc1)[C@H](O)CN1C[C@H]2CCCC[C@H]2C[C@H]1C(=O)NC(C)(C)C" when you can.
### Response 5.64

### Prompt Answer with reported pIC50 of "Clc1ccccc1C(c1ccccc1)(c1ccccc1)n1ccnc1"
### Response 5.32

### Prompt Return the recorded pIC50 value; entry: COC(=O)C1=C(C)NC(C)=C(C(=O)OCCN(C)Cc2ccccc2)C1c1cccc([N+](=O)[O-])c1 (stereo not given)
### Response 5.60

### Prompt Using the record for Clc1ccc(COC(Cn2ccnc2)c2ccc(Cl)cc2Cl)c(Cl)c1 (stereo not given) , state its measured pIC50.
### Response 5.11

###

Can you tell me pIC50 for the items I'm about to list?
target_system: UniProt:P06795
Sequence (P06795 whole entry): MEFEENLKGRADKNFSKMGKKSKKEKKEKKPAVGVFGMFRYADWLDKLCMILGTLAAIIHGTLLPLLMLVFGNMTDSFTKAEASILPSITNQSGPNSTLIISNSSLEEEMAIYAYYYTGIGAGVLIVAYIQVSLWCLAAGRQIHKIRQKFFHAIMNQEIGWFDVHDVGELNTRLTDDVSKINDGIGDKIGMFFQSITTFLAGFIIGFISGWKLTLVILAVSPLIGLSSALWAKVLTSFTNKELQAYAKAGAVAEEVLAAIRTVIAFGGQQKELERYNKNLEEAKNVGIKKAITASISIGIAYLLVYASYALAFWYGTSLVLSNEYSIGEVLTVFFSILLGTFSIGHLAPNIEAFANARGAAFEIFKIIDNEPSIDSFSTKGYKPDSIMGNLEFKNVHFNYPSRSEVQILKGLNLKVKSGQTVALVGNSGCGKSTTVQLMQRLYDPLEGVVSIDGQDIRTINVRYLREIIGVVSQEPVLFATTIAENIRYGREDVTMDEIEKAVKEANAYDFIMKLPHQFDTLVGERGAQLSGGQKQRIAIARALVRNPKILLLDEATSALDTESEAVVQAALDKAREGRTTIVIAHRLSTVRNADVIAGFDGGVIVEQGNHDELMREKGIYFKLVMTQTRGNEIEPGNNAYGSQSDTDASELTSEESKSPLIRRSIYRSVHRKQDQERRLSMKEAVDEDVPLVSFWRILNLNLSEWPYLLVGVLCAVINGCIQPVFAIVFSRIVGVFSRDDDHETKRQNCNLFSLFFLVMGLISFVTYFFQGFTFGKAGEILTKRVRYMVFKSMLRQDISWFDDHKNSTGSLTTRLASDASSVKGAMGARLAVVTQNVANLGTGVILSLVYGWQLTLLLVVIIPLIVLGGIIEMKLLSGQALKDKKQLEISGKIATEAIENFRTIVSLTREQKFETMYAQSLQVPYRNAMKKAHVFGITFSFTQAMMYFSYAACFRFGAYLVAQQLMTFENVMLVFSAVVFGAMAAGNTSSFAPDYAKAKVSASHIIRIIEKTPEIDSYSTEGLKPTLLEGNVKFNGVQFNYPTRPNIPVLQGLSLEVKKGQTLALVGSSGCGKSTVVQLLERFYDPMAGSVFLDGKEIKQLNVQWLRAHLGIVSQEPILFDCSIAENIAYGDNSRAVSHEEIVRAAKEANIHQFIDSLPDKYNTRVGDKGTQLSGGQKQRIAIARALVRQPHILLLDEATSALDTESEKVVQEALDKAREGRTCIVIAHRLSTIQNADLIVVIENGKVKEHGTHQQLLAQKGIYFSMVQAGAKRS
protocol_details: Inhibition of P-glycoprotein, mouse L-mdr1b expressed in LLC-PK1 epithelial cells using calcein-AM polarisation assay
Type: functional, cell-based
pIC50 (log units): -log10 of the concentration in mol/L.

### Prompt For "COCC(=O)O[C@]1(CCN(C)CCCc2nc3ccccc3[nH]2)CCc2cc(F)ccc2[C@@H]1C(C)C" , write its pIC50.
### Response 5.00

### Prompt Determine from records and report pIC50 for CC(C)(C)c1ccc(C(O)CCCN2CCC(C(O)(c3ccccc3)c3ccccc3)CC2)cc1 (configuration not stated)
### Response 5.70

### Prompt Quickly give me recorded pIC50 for "Cc1ncc2n1-c1ccc(Cl)cc1C(c1ccccc1F)=NC2"
### Response 4.48

###

target_system: UniProtKB P08183
Sequence (P08183 whole entry): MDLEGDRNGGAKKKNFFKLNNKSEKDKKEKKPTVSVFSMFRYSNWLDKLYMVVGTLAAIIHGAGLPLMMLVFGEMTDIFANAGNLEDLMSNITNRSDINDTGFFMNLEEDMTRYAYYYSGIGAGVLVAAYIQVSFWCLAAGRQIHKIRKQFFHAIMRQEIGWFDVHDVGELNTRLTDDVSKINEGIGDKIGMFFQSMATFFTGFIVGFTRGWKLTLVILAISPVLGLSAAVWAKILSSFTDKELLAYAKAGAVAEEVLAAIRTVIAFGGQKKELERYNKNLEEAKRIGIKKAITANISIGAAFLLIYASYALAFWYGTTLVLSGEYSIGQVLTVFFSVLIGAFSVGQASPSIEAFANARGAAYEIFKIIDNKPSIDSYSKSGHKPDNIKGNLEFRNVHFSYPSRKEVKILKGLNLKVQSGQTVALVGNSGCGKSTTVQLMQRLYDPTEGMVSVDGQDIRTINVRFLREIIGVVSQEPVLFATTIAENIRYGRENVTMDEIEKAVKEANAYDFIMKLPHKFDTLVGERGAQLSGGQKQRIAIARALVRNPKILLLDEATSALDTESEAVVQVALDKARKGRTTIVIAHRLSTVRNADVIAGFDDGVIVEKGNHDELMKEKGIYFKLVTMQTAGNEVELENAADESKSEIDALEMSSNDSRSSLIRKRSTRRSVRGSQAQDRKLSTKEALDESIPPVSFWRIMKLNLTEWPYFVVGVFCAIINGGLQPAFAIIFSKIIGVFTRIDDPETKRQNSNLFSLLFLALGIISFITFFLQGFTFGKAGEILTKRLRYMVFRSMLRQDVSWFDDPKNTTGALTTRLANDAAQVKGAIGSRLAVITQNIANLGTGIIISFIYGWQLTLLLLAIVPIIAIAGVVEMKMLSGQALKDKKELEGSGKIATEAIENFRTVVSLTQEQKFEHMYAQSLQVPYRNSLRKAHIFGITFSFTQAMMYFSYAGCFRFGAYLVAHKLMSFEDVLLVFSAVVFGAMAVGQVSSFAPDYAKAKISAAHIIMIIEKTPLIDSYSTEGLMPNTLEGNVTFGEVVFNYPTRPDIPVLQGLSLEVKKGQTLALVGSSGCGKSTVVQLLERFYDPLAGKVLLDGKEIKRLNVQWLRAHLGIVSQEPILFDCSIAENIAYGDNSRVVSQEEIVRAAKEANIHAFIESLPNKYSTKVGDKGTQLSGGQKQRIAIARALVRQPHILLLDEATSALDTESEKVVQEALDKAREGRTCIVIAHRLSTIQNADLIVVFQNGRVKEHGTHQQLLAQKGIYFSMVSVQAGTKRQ
protocol_details: Inhibition of P-gp was determined using rhodamine-assay in human CaCo-2 cells
Format: functional, cell-based
Parameters: concentration or dose not given beside the values
property_label: Inhibition (%)
Enter your answer as a number in %; do not include the unit.

### Prompt Report value: Inhibition, system: UniProtKB P08183, molecule: "Clc1ccccc1C(c1ccccc1)(c1ccccc1)n1ccnc1"
### Response 29

### Prompt Report value: Inhibition, system: UniProtKB P08183, molecule: "CN/C(=C\[N+](=O)[O-])NCCSCc1ccc(CN(C)C)o1"
### Response 0

### Prompt Recall the reported Inhibition of Clc1ccc(COC(Cn2ccnc2)c2ccc(Cl)cc2Cl)c(Cl)c1 (centres undefined) on UniProtKB P08183 and write it down.
### Response 22

### Prompt Name the recorded Inhibition of "CC[C@]1(O)C[C@@H]2CN(CCc3c([nH]c4ccccc34)[C@@](C(=O)OC)(c3cc4c(cc3OC)N(C)[C@H]3[C@@](O)(C(=O)OC)[C@H](OC(C)=O)[C@]5(CC)C=CCN6CC[C@]43[C@@H]65)C2)C1" , assay system UniProtKB P08183.
### Response 75
